# SYSTEM UNDER TEST: T1, human TMEM106B (human, UniProt Q9NUM4 2-274)
# T1 construct: Full-length, on transiently transfected HEK293 cells, or natively expressed on HeLa, U251 and A549 cells; also called huTMEM106B; huTMEM
# EXPERIMENT NOTES: FACS HEK+huTMEM, 0.01 ug/ml
// returns no unless MFI is strictly below 4000, in which case yes

anti-TMEM106B antibody TM-17 (antibody, V domains shown) VH: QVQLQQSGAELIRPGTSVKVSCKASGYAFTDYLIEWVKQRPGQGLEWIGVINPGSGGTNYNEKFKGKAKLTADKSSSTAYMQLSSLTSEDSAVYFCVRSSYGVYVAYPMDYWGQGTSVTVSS VL: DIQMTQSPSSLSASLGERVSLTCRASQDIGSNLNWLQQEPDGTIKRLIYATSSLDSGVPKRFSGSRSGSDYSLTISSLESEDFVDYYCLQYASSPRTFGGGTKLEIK: yes
anti-TMEM106B antibody TM-13 (antibody, V domains shown) VH: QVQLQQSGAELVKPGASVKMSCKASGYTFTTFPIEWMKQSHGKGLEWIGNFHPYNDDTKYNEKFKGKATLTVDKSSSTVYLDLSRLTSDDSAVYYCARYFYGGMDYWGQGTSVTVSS VL: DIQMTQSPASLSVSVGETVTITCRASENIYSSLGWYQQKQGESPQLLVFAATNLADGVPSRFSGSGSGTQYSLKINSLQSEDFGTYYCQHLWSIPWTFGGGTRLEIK: yes
anti-TMEM106B antibody TM-33 (antibody, V domains shown, mouse IgG from hybridoma) VH: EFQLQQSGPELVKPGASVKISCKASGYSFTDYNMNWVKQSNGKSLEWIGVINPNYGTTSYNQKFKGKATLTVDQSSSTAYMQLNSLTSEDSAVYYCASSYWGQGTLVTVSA VL: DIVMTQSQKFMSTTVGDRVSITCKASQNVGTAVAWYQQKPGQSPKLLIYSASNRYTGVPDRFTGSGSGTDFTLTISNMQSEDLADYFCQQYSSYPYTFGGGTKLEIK: yes
anti-TMEM106B antibody TM-11 (antibody, V domains shown) VH: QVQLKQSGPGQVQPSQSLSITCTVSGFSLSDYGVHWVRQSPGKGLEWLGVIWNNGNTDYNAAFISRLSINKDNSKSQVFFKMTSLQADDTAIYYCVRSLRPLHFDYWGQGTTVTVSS VL: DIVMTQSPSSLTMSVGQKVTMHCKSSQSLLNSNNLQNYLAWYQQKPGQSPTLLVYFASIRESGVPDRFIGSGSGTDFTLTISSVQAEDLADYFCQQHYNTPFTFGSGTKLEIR: no
anti-TMEM106B antibody TM-7 (antibody, V domains shown) VH: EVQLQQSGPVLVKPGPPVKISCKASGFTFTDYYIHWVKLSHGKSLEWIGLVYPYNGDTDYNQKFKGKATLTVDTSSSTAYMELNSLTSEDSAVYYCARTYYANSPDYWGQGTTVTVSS VL: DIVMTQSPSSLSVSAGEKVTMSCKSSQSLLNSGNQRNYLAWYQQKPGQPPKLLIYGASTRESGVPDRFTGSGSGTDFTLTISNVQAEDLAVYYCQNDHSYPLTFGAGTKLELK: yes
anti-TMEM106B antibody TM-27 (antibody, V domains shown) VH: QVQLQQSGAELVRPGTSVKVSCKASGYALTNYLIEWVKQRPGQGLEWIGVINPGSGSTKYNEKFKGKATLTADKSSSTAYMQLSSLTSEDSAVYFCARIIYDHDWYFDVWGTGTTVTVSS VL: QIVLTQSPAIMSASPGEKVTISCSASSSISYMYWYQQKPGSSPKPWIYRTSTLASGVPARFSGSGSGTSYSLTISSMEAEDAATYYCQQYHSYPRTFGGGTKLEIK: yes
anti-TMEM106B antibody TM-18 (antibody, V domains shown) VH: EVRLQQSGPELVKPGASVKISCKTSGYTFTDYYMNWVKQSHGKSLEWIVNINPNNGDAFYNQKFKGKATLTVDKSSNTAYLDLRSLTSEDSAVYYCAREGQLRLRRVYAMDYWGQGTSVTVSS VL: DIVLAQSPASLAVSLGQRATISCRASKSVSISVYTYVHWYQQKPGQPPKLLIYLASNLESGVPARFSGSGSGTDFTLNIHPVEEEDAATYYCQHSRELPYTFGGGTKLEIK: yes

Then there is this binder:
MFI under 4000? Item: anti-TMEM106B antibody TM-25 (antibody, V domains shown) VH: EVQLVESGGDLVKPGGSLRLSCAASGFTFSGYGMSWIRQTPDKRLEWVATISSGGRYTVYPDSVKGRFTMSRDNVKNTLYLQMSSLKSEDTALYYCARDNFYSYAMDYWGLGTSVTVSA VL: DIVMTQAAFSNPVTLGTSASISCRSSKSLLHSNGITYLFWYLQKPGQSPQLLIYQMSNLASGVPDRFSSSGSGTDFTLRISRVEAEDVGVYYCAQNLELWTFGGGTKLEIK no
